# Test system: HCI-016 (organoid from a triple-negative breast cancer xenograft)
# Run description: CTG-3D luminescence at 96 h relative to day-0 seeding control (ratio to day 0); higher = more growth / less cytotoxicity; PDxO 3D drug screen, 96 h, CTG-3D normalised to day-0 seeding control.
# Condition notes: 100 µM; days in culture: 153
Listed below: CTG-3D luminescence at 96 h values for each entry.
Recorded metric: CTG-3D luminescence at 96 h

Compound	Data value
CS(=O)(=O)c1ccc(C(=O)Nc2ccc(Cl)c(-c3ccccn3)c2)c(Cl)c1 [vismodegib]	0.626
NC(=O)c1cccc2cn(-c3ccc([C@@H]4CCCNC4)cc3)nc12 [niraparib]	-0.00489
COc1cc2c(Oc3ccc4[nH]c(C)cc4c3F)ncnc2cc1OCCCN1CCCC1 [cediranib]	-0.00356
CCc1c2c(nc3ccc(O)cc13)-c1cc3c(c(=O)n1C2)COC(=O)[C@]3(O)CC [SN-38]	0.0259
Cc1nc(-c2cn3c(n2)-c2ccc(-c4cnn(C(C)(C)C(N)=O)c4)cc2OCC3)n(C(C)C)n1 [taselisib]	1.08
C[C@]12CC[C@@H]3c4ccc(O)cc4C[C@@H](CCCCCCCCC[S+]([O-])CCCC(F)(F)C(F)(F)F)[C@H]3[C@@H]1CC[C@@H]2O (some centres not stated) [fulvestrant]	1.86
CC(=O)O[C@H]1C(=O)[C@@]2(C)[C@H]([C@H](OC(=O)c3ccccc3)[C@]3(O)C[C@H](OC(=O)[C@H](O)[C@@H](NC(=O)c4ccccc4)c4ccccc4)C(C)=C1C3(C)C)[C@]1(OC(C)=O)CO[C@@H]1C[C@@H]2O [paclitaxel]	0.796

###

# reported CTG-3D luminescence at 96 h; entries follow
# Tested on: HCI-002 (organoid from a triple-negative breast cancer xenograft)
# Run description: CTG-3D luminescence at 96 h relative to day-0 seeding control (ratio to day 0); higher = more growth / less cytotoxicity; PDxO 3D drug screen (set 2), 96 h, CTG-3D normalised to day-0 seeding control.
# Condition notes: 0.00025 µM; days in culture: 127
Recorded metric: CTG-3D luminescence at 96 h

Smiles representation	Data value
C[C@@H](Nc1cc(F)cc(F)c1)c1cc(C(=O)N(C)C)cc2c(=O)cc(N3CCOCC3)oc12	2.9
CO[C@H]1C[C@@H]2CC[C@@H](C)[C@@](O)(O2)C(=O)C(=O)N2CCCC[C@H]2C(=O)O[C@H]([C@H](C)C[C@@H]2CC[C@@H](O)[C@H](OC)C2)CC(=O)[C@H](C)/C=C(\C)[C@@H](O)[C@@H](OC)C(=O)[C@H](C)C[C@H](C)/C=C/C=C/C=C/1C	1.99
O=C(c1cc(Cc2n[nH]c(=O)c3ccccc23)ccc1F)N1CCN(C(=O)C2CC2)CC1	2.88
CO[C@H]1C[C@@H]2CC[C@@H](C)[C@@](O)(O2)C(=O)C(=O)N2CCCC[C@H]2C(=O)O[C@H]([C@H](C)C[C@@H]2CC[C@@H](OCCO)[C@H](OC)C2)CC(=O)[C@H](C)/C=C(\C)[C@@H](O)[C@@H](OC)C(=O)[C@H](C)C[C@H](C)/C=C/C=C/C=C/1C	2.27
CC(=O)c1c(C)c2cnc(Nc3ccc(N4CCNCC4)cn3)nc2n(C2CCCC2)c1=O	3.03

###

# Test system: HCI-016
# Run description: CTG-3D luminescence at 96 h relative to day-0 seeding control (ratio to day 0); higher = more growth / less cytotoxicity; PDxO 3D drug screen, 96 h, CTG-3D normalised to day-0 seeding control.
# Condition notes: 0.005 µM; days in culture: 153

Compound	CTG-3D luminescence at 96 h
NC1(C(=O)N[C@@H](CCO)c2ccc(Cl)cc2)CCN(c2nc[nH]c3nccc2-3)CC1	2.64
O=C(/C=C/c1cccnc1)NCCCCC1CCN(C(=O)c2ccccc2)CC1	0.569
C[C@]12CC[C@@H]3c4ccc(O)cc4C[C@@H](CCCCCCCCC[S+]([O-])CCCC(F)(F)C(F)(F)F)[C@H]3[C@@H]1CC[C@@H]2O (stereo partly drawn)	2.24
C/C=C1\NC(=O)[C@H]2CSSCC/C=C/[C@H](CC(=O)N[C@H](C(C)C)C(=O)N2)OC(=O)[C@H](C(C)C)NC1=O	0.563
CC[C@H](NC(=O)[C@H](C)NC)C(=O)N1C[C@@H](O)C[C@H]1Cc1c(-c2[nH]c3cc(F)ccc3c2C[C@@H]2C[C@H](O)CN2C(=O)[C@H](CC)NC(=O)[C@H](C)NC)[nH]c2cc(F)ccc12	2.64
CCc1c2c(nc3ccc(O)cc13)-c1cc3c(c(=O)n1C2)COC(=O)[C@]3(O)CC	1.68
Cc1cc(Nc2ncnc3ccc(NC4=NC(C)(C)CO4)cc23)ccc1Oc1ccn2ncnc2c1	2.31
C=CC(=O)N1CCC[C@@H](n2nc(-c3ccc(Oc4ccccc4)cc3)c3c(N)ncnc32)C1	2.64

###

Property: CTG-3D luminescence at 96 h; scope: individual molecules
# Test system: HCI-001 (organoid from a triple-negative breast cancer xenograft)
# Run description: CTG-3D luminescence at 96 h relative to day-0 seeding control (ratio to day 0); higher = more growth / less cytotoxicity; PDxO 3D drug screen, 96 h, CTG-3D normalised to day-0 seeding control.
# Condition notes: 0.00025 µM; days in culture: 269

Molecule	CTG-3D luminescence at 96 h
C/C=C1\NC(=O)[C@H]2CSSCC/C=C/[C@H](CC(=O)N[C@H](C(C)C)C(=O)N2)OC(=O)[C@H](C(C)C)NC1=O	1.72
CCN(c1cc(C#CCN2CCOCC2)cc(C(=O)NCc2c(C)cc(C)[nH]c2=O)c1C)[C@H]1CC[C@H](N(C)CCOC)CC1	1.57
C[C@]12CC[C@@H]3c4ccc(O)cc4C[C@@H](CCCCCCCCC[S+]([O-])CCCC(F)(F)C(F)(F)F)[C@H]3[C@@H]1CC[C@@H]2O (stereo not given in full)	1.59
Nc1ccn([C@@H]2O[C@H](CO)[C@@H](O)C2(F)F)c(=O)n1	1.62
CCc1c2c(nc3ccc(O)cc13)-c1cc3c(c(=O)n1C2)COC(=O)[C@]3(O)CC	1.63

###

# System: HCI-008 (organoid from a HER2-enriched breast cancer xenograft)
# Run description: CTG-3D luminescence at 96 h relative to day-0 seeding control (ratio to day 0); higher = more growth / less cytotoxicity; PDxO 3D drug screen, 96 h, CTG-3D normalised to day-0 seeding control.
# Condition notes: 0.1 µM; days in culture: 244
Recorded metric: CTG-3D luminescence at 96 h

Smiles representation	Data value
C=CC(=O)N1CCC[C@@H](n2nc(-c3ccc(Oc4ccccc4)cc3)c3c(N)ncnc32)C1	1.65
CS(=O)(=O)c1ccc(C(=O)Nc2ccc(Cl)c(-c3ccccn3)c2)c(Cl)c1	2.27
NC(=O)c1cccc2cn(-c3ccc([C@@H]4CCCNC4)cc3)nc12	2.31
CC(C)(C(=O)NCC(F)(F)C(F)(F)F)C(=O)N[C@@H]1C(=O)Nc2ccccc2-c2ccccc21	1.59
CCc1c2c(nc3ccc(O)cc13)-c1cc3c(c(=O)n1C2)COC(=O)[C@]3(O)CC	0.575
Cc1cc(Nc2ncnc3ccc(NC4=NC(C)(C)CO4)cc23)ccc1Oc1ccn2ncnc2c1	1.99
COc1cc2c(Oc3ccc4[nH]c(C)cc4c3F)ncnc2cc1OCCCN1CCCC1	2.04
O=C(c1ccc(F)c(F)c1Nc1ccc(I)cc1F)N1CC(O)([C@@H]2CCCCN2)C1	1.57

###

CTG-3D luminescence at 96 h by entry:
# Test system: HCI-016
# Run description: CTG-3D luminescence at 96 h relative to day-0 seeding control (ratio to day 0); higher = more growth / less cytotoxicity; PDxO 3D drug screen, 96 h, CTG-3D normalised to day-0 seeding control.
# Condition notes: 0.005 µM; days in culture: 190

Compound	CTG-3D luminescence at 96 h
CCN(c1cc(C#CCN2CCOCC2)cc(C(=O)NCc2c(C)cc(C)[nH]c2=O)c1C)[C@H]1CC[C@H](N(C)CCOC)CC1	1.75
COc1cc2c(Oc3ccc4[nH]c(C)cc4c3F)ncnc2cc1OCCCN1CCCC1 [cediranib]	1.45
O=C(c1ccc(F)c(F)c1Nc1ccc(I)cc1F)N1CC(O)([C@@H]2CCCCN2)C1 [cobimetinib]	1.45
Cc1cc(Nc2ncc(Cl)c(Nc3ccccc3S(=O)(=O)C(C)C)n2)c(OC(C)C)cc1C1CCNCC1 [ceritinib]	1.62

###

# Tested on: HCI-008
# Run description: CTG-3D luminescence at 96 h relative to day-0 seeding control (ratio to day 0); higher = more growth / less cytotoxicity; PDxO 3D drug screen, 96 h, CTG-3D normalised to day-0 seeding control.
# Condition notes: 0.1 µM; days in culture: 228

Compound	Tested system	CTG-3D luminescence at 96 h
C/C=C1\NC(=O)[C@H]2CSSCC/C=C/[C@H](CC(=O)N[C@H](C(C)C)C(=O)N2)OC(=O)[C@H](C(C)C)NC1=O [romidepsin]	HCI-008	0.0457
Cc1nc(-c2cn3c(n2)-c2ccc(-c4cnn(C(C)(C)C(N)=O)c4)cc2OCC3)n(C(C)C)n1 [taselisib]	HCI-008	0.687
Cc1cc(Nc2ncnc3ccc(NC4=NC(C)(C)CO4)cc23)ccc1Oc1ccn2ncnc2c1 [tucatinib]	HCI-008	1.85
CC(C)(C(=O)NCC(F)(F)C(F)(F)F)C(=O)N[C@@H]1C(=O)Nc2ccccc2-c2ccccc21	HCI-008	1.3

From: the supplement of paper PMC8882468
